Ref: patent EP1724268A1

- Tested on: TGFβ signal
- assay-comment: TGFβ signal inhibitory activity, (SBE)4-Luc reporter in A549 cells (Test Examples 1A and 1B)
- Format: cell-based, human
- condition-context: Homo sapiens, A549; 3 µM; compounds of Reference Examples (Test Example 1B); read-out: TGFβ inhibition rate, %
Param threshold (90%) applies to inhibition at 3 µM; output Satisfied when value >= threshold, Not satisfied when value < threshold.

[
  {
    "molecule": "COc1cc2nccc(Oc3ccnc4ccsc34)c2cc1OC [Compound r307]",
    "label": "Not satisfied"
  },
  {
    "molecule": "COc1cc2nccc(Oc3ccc(C)nc3-c3cc(C)no3)c2cc1OC [r258]",
    "label": "Satisfied"
  },
  {
    "molecule": "COc1cc2nccc(Oc3ccc(C)cc3-c3ccccn3)c2cc1OC [r167]",
    "label": "Satisfied"
  },
  {
    "molecule": "COc1cc2c(Oc3ccc(C)nc3-c3nccs3)ccnc2cc1OCC(CO)CO [Compound r330]",
    "label": "Satisfied"
  },
  {
    "molecule": "CCOc1cccc(-c2nc(C)ccc2Oc2ccnc3cc(OC)c(OC)cc23)c1 [Compound r239]",
    "label": "Not satisfied"
  },
  {
    "molecule": "COc1cc2nccc(Oc3ccc(C)nc3-c3ccc(Cl)cc3)c2cc1OC [Compound r252]",
    "label": "Not satisfied"
  },
  {
    "molecule": "COc1cc2c(Oc3cc4cccnc4nc3C)ccnc2cc1OCC(O)CO (stereo not shown) [Compound r403]",
    "label": "Not satisfied"
  },
  {
    "molecule": "COc1cc2c(Oc3cc(C)c(C)nc3-c3cccc(C)n3)ccnc2cc1OCC1CO1 (stereo not shown) [Compound r446]",
    "label": "Not satisfied"
  },
  {
    "molecule": "COc1cc2c(Oc3cc4cccnc4nc3C)ccnc2cc1OCCN1CCCCC1 [r440]",
    "label": "Satisfied"
  },
  {
    "molecule": "COc1cc2nccc(Oc3ccc(C)nc3-c3ccc(Oc4ccccc4)cc3)c2cc1OC [Compound r250]",
    "label": "Not satisfied"
  },
  {
    "molecule": "CCCOC(=O)c1cc2ccccc2cc1Oc1ccnc2cc(OCCCl)c(OC)cc12 [Compound r322]",
    "label": "Not satisfied"
  },
  {
    "molecule": "COc1cc2nccc(Oc3ccc(C)nc3C(OC(C)=O)c3ccccc3)c2cc1OC (stereo not shown) [r218]",
    "label": "Not satisfied"
  },
  {
    "molecule": "COc1cc2c(Oc3cc4ccccc4nc3C)ccnc2cc1OCCCN1CCCCC1 [Compound r378]",
    "label": "Satisfied"
  },
  {
    "molecule": "COc1cc2c(Oc3cc4ccccc4nc3C(C)=O)ccnc2cc1OCC1CO1 (stereo not shown) [Compound r394]",
    "label": "Not satisfied"
  },
  {
    "molecule": "COC(=O)COc1cc2nccc(Oc3cc4ccccc4nc3C)c2cc1OC [Compound r371]",
    "label": "Not satisfied"
  },
  {
    "molecule": "COc1cc2nccc(Oc3ccc(Cl)nc3)c2cc1OC [r206]",
    "label": "Not satisfied"
  }
]
